Tested on: mice
experimentNotes: Neuropharmacological Assay (SmartCube)
Type: in vivo
settings: i.p. 15 min before behavioral test; 3 doses, most efficacious dose(s) presented
assayEndpoint: SD: sedative hypnotic (probability of class match)

In the examples that follow, each entry is paired with its recorded SD: sedative hypnotic (probability of class match).
>>> valuereported("c1ccc2c3n(nc2c1)CCOC3CN1CCOCC1 (stereo not drawn) [Compound 20]")
"+ (LOQ≦ + <5%)"
>>> valuereported("CNC[C@@H]1OCCn2nc3ccccc3c21 [Compound 1]")
"+ (LOQ≦ + <5%)"
>>> valuereported("Cl.N[C@H](CC1CCC1)C1OCCn2nc3ccccc3c21 (stereo partly drawn) [Compound 41]")
"+ (LOQ≦ + <5%)"
>>> valuereported("c1ccc2c3n(nc2c1)CCOC31CNC1 [Compound 40]")
"++ (5%≦ ++ <25%)"
>>> valuereported("C[C@H](N)[C@H]1OCCn2nc3ccccc3c21 (relative stereo) [Compound 33]")
"+ (LOQ≦ + <5%)"
>>> valuereported("CCNCC1OCCn2nc3ccccc3c21.Cl (stereo not drawn) [Compound 18]")
"+ (LOQ≦ + <5%)"

Exercise: Determine its reported SD: sedative hypnotic (probability of class match): CN(CC1OCCCn2nc3ccccc3c21)C1CCC1.Cl (stereo not drawn) [Compound 55]
Key: + (LOQ≦ + <5%)

Exercise: Supply reported SD: sedative hypnotic (probability of class match) belonging to this molecule: CC1(CN)OCCn2nc3ccccc3c21.Cl (stereo not drawn) [Compound 39]
Key: + (LOQ≦ + <5%)

Exercise: Report SD: sedative hypnotic (probability of class match) for c1ccc2c3n(nc2c1)CCOC31CCNCC1 [Compound 36]
Key: ++ (5%≦ ++ <25%)

Attribution: patent US9758529B2
